System: SF-539
EXPERIMENTAL DETAILS: NCI tumour cell line growth inhibition, 48 h
The source made the active and inactive calls. No stated cut-off is given here; in the data, active = GI50 up to about 1.1 µM and inactive = higher.
Outcomes: true (1) = active, false (0) = inactive

| COMPOUND | QUALITATIVE LABEL |
| --- | --- |
| FC(F)(F)c1ccccc1C1SCc2nc3ccccc3n21 (stereo unspecified) | false (0) |
| O=C(c1ccco1)N(C(=S)N1CCN(c2ccccn2)CC1)c1ccccc1 | false (0) |
| O=c1c2cc(-c3ccccc3)sc2nc2sc(-c3ccccc3)nn12 | false (0) |
| C[C@@H]1O[C@@H](O[C@H]2[C@H](Oc3cc(O)c4c(=O)cc(-c5ccc(O)cc5)oc4c3)O[C@H](CO)[C@@H](O)[C@@H]2O)[C@H](O)[C@H](O)[C@H]1O | false (0) |
| Cc1cc(C)nc(NS(=O)(=O)c2ccc(Nc3c4ccccc4nc4ccc(C(=O)Nc5ccc(S(=O)(=O)N=C(N)N)cc5)cc34)cc2)n1 | false (0) |
| COC(=O)/C=C/[C@@H]1[C@H](C)N1S(=O)(=O)c1ccc(C)cc1 (stereo partly specified) | false (0) |
| O=C(O)CCC1COc2ccccc2O1 (stereo unspecified) | false (0) |
| COc1ccc2oc(C(=O)N3CC(CCl)c4ccc([N+](=O)[O-])cc43)cc2c1 (stereo unspecified) | false (0) |
| CN(Cc1cnc2nc(N)nc(N)c2n1)c1ccc(C(=O)NC(CCC(=O)NC(P(=O)(O)O)P(=O)(O)O)C(=O)O)cc1 (stereo unspecified) | false (0) |
| O=C(CC(C(=O)c1ccc(F)cc1)c1ccsc1)c1cccs1 (stereo unspecified) | false (0) |
| CO[C@H]1C[C@H](O[C@H]2CC[C@]3(C=O)[C@H]4CC[C@]5(C)[C@@H](C6=CC(=O)OC6)CC[C@]5(O)[C@@H]4CC[C@]3(O)C2)O[C@H](C)[C@H]1O | true (1) |

* * *

As shown below, each of these compounds has a reported GI50 value.
Tested on: Malme-3M
EXPERIMENTAL DETAILS: NCI tumour cell line growth inhibition, 48 h
Calls of active or inactive are those of the source. Cut-off read from the data, not from the text of the source: active = GI50 up to about 1.1 µM and inactive = higher.

| COMPOUND | GI50 |
| --- | --- |
| O=C(O)CN(c1ccccc1)S(=O)(=O)c1ccc(Cl)cc1 | > 100 µM (inactive) |
| COC(=O)CNC(=O)C(CSC(=O)OCC1c2ccccc2-c2ccccc21)NC(=O)CCC(NC(=O)OCC1c2ccccc2-c2ccccc21)C(=O)OC (centres undefined) | 25.7 µM (inactive) |
| CCOC(=O)N1c2c(ccn2C)-c2ccn(C)c2N1C(=O)OCC | 19 µM (inactive) |
| Cc1ccc(C)c2c1C/C(=C\c1ccccc1C(=O)O)C2=O | > 100 µM (inactive) |
| O=C(N=C1N(c2ccccc2)C(=O)C(=O)N1c1ccccc1)c1ccccc1 | 17.4 µM (inactive) |
| CN(Cc1cnc2nc(N)nc(N)c2n1)c1ccc(C(=O)NC(CCC(=O)NC(P(=O)(O)O)P(=O)(O)O)C(=O)O)cc1 (centres undefined) | > 100 µM (inactive) |
| COC(=O)/C=C/[C@@H]1[C@H](C)N1S(=O)(=O)c1ccc(C)cc1 (some centres undefined) | > 100 µM (inactive) |
| C(=N\CC/N=C/c1cccc2ccccc12)/c1cccc2ccccc12 | > 100 µM (inactive) |
| CCOC(=O)C1=C(N)N2C(=N[C@H]3CCCC[C@@H]32)N=C1 | > 100 µM (inactive) |
| COc1ccc(C[C@@H]2OC3(C=CC(=O)C=C3)O[C@H]2Cc2ccc(OC)cc2)cc1 | 1.51 µM (inactive) |
| FC(F)(F)c1cccc(-c2nc3ccccc3c3c2[C@@]2(N4CCCC4)CCCC[C@@H]32)c1 | 32.9 µM (inactive) |
| O=C(C[n+]1ccccc1)N/N=C(\Cc1nc2ccc([N+](=O)[O-])cc2nc1O)C(=O)Nc1cc(Cl)c(Cl)cc1Cl | > 100 µM (inactive) |
| OC1C=C2C3CN(Cc4cc5c(cc43)OCO5)[C@H]2C[C@@H]1O (some centres undefined) | 7.23 µM (inactive) |
| Oc1ccc(Cl)cc1CN1CCN(Cc2cc(Cl)ccc2O)C1 | 2.17 µM (inactive) |

* * *

Test system: SNB-78
EXPERIMENTAL DETAILS: NCI tumour cell line growth inhibition, 48 h
The source made the active and inactive calls. Rule as the data show it: active = GI50 up to about 1.1 µM and inactive = higher.

| MOLECULE | GI50 |
| --- | --- |
| O=C1NC(=S)NC(=O)C1=C(O)Nc1ccccc1 | 44.1 µM (inactive) |
| O=C(Nc1nc2ncn(CCNCCn3cnc4nc(NC(=O)c5ccccc5)[nH]c(=O)c43)c2c(=O)[nH]1)c1ccccc1 | > 100 µM (inactive) |
| CCOC(=O)NC(=O)c1cn(CCN2CCN(C(=O)NCCCCCCNC(=O)N3CCN(CCn4cc(C(=O)NC(=O)OCC)c(=O)n(CCN(CC)CC)c4=O)CC3)CC2)c(=O)n(CCC(CC)CC)c1=O | > 100 µM (inactive) |
| COC(=O)[C@@]12CC(C(C)C)[C@H]3CC(C(=O)C=C1OC)[C@H]32 (some centres undefined) | > 100 µM (inactive) |
| O=c1c2cc(-c3ccccc3)sc2nc2sc(-c3ccccc3)nn12 | > 100 µM (inactive) |
| CCN(CC)CCCC(C)NC(=O)c1ccc2c(c1)C(=O)c1ccccc1C2=O (centres undefined) | 22.9 µM (inactive) |
| ClC(Cl)[Si]12OCCN(CCO1)CCO2 | > 100 µM (inactive) |
| CCC1(N=[N+]=[N-])C(=O)c2ccccc2N(c2ccccc2)C1=O (centres undefined) | > 100 µM (inactive) |
| CCOC(=O)C1C(c2ccccc2)=C(c2ccccc2)C(c2ccccc2)=C1c1ccccc1 | 27.5 µM (inactive) |

* * *

Test system: HCT-116
EXPERIMENTAL DETAILS: NCI tumour cell line growth inhibition, 48 h
Active and inactive are the calls of the source. Rule as the data show it: active = GI50 up to about 1.1 µM and inactive = higher.
Outcomes: true (active), false (inactive)

| MOLECULE | MEASURED TARGET | QUALITATIVE LABEL |
| --- | --- | --- |
| COc1cc2c(cc1OCCCOc1cc3c(cc1OC)C(=O)N1CCC[C@H]1C(=O)N3)N=C[C@@H]1CCCN1C2=O | HCT-116 | false |
| O=C(O)c1ccccc1CC(Cc1ccccc1)C(=O)O (stereo not given) | HCT-116 | false |
| CC1NC(=O)c2c(-c3ccccc3)nn(-c3ccccc3)c2NC1=O (stereo not given) | HCT-116 | false |
| CN(Cc1cnc2c(n1)C(N)=NN(N)N2)c1ccc(C(=O)NC(CCP(=O)(O)O)C(=O)O)cc1 (stereo not given) | HCT-116 | true |
| O=c1c2cc(-c3ccccc3)sc2nc2sc(-c3ccccc3)nn12 | HCT-116 | false |

* * *

Tested on: HOP-92
EXPERIMENTAL DETAILS: NCI tumour cell line growth inhibition, 48 h
Calls of active or inactive are those of the source. No stated cut-off is given here; in the data, active = GI50 up to about 1.1 µM and inactive = higher.

| COMPOUND | GI50 |
| --- | --- |
| CC(C)(C)c1cc(-c2cc(C(C)(C)C)[nH]n2)[nH]n1 | > 100 µM (inactive) |
| COC(=O)C(C(=O)C(=O)Nc1nc2ccc(OC)cc2s1)c1cnc2ccccc2n1 (configuration not stated) | > 100 µM (inactive) |
| COC(=O)C(CNC(=O)/C=C/c1ccc(OC)c(OC)c1)NC(=O)/C=C/c1ccc(OC)c(OC)c1 (configuration not stated) | > 100 µM (inactive) |
| CCSC1SC(c2ccccc2)(c2ccccc2)c2ccccc21 (configuration not stated) | 30.8 µM (inactive) |
| NC(=S)N/N=C/C1NCCC2CCCCC21 (configuration not stated) | 0.0641 µM (active) |
| C=CCCC1(C)CCCNC1=S (configuration not stated) | > 100 µM (inactive) |
| N#CCC1COc2ccccc2O1 (configuration not stated) | > 10 µM (inactive) |
| COc1ccc(CNc2nc(NCc3ccc(OC)cc3)nc(N3CCOCC3)n2)cc1 | 22.8 µM (inactive) |
| C=C(C)C1CC/C(C)=C/CC[C@]2(C)O[C@H]2CC/C(COC(C)=O)=C\[C@@H]1O (some centres not stated) | > 50 µM (inactive) |
| COC(=O)C(C)Sc1nc2cc(Cl)ccc2s1 (configuration not stated) | > 100 µM (inactive) |
| COC(=O)C1=C(O)c2cc(OC)c(OC)c(OC)c2C(c2ccc3c(c2)OCO3)[C@@H]1C(=O)OC (some centres not stated) | > 100 µM (inactive) |
| CC(=O)N(C(=O)CC(=O)NNCc1ccccc1Cl)c1ccc(Cl)cc1 | > 10 µM (inactive) |
| CCN1CC2(CO)CCC(OC)C34C5CC6C(OC)CC(O)(C5C6OC)C(O)(C(OC)C23)C14 (configuration not stated) | 168 µM (inactive) |
| CCN(CC)CCCNc1nncc2c(C)c3[nH]c4ccc(OC)cc4c3cc12 | 0.369 µM (active) |
| CC1(C)[C@@H](Cn2ccc(=O)[nH]c2=O)CC[C@@]1(C)CO | > 100 µM (inactive) |
| CCOC(CN(C)C(=O)OCC(Cl)(Cl)Cl)OCC | 33.9 µM (inactive) |
| O=C1Oc2ccccc2C(=O)/C1=C/N1C(=O)/C(=C/c2ccc([N+](=O)[O-])cc2)SC1=S | 1.08 µM (active) |
| CO/N=C(\C(=O)Nc1cncs1)c1csc(NC(c2ccccc2)(c2ccccc2)c2ccccc2)n1 | > 10 µM (inactive) |
| Cn1c2c(cc(-c3ccccc3)c1=O)COc1ccccc1-2 | 28.8 µM (inactive) |
| O=C(/C=C/c1ccc(O)c(O)c1)OCC(OC(=O)/C=C/c1ccc(O)c(O)c1)C(=O)O (configuration not stated) | > 100 µM (inactive) |
| O=[N+]([O-])c1ccc(/C=N/CC2CCCN3CCCCC23)cc1 (configuration not stated) | > 100 µM (inactive) |
| CCOC(=O)N1c2c(ccn2C)-c2ccn(C)c2N1C(=O)OCC | 20.6 µM (inactive) |
